Please provide measured IC50 for the entries that follow.
# Tgt: CyclinB1/CDK1 (Homo sapiens, UniProt P14635)
# Construct: purchased Eurofins, discovery 14-450
# Protocol Summary: Fluorescence Polarization (FP) competitive binding assay, Cyclin B1/Cdk1;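 also: fluorescence polarization read after equilibration at room temperature, with IC50 taken from serially diluted dose-response curves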
# Particulars: 10 nM Cyclin B1/Cdk1, 2 nM FAM probe; average of 2-3 independent experiments; read-out: Cyclin B FP IC50
*1 amine or outer side, *2 acyl side, *3 side chain or, on linkers, in order; H or OH if unused. Where a SMILES comes first, the peptide text is derived from it. Bridges are numbered along the chain shown (N, C = ends). [ ]: non-standard residue; d: D form. The star is where a group is joined. NMehhhLys(Me) = CN([C@@H](CCCCCCCN(C)[*:3])C(=O)[*:2])[*:1]; X112 = CN([C@@H](Cc1cc(F)ccc1-c1cnn(C)c1)C(=O)[*:2])[*:1]; NMe3Pal(2-OcPr,5-F) = CN[C@@H](Cc1cc(F)cnc1OC1CC1)C(=O)O; NMe(hhhLys) = CN([C@@H](CCCCCCCN[*:3])C(=O)[*:2])[*:1]; Cyclobutanecarbonyl(1-CF3) = O=C(C1(C(F)(F)F)CCC1)*; cBuCO(3,3-F2-1-CF3) = O=C(C1(C(F)(F)F)CC(F)(F)C1)*; Pro(trans-4-F) = O=C(O)[C@@H]1C[C@@H](F)CN1; Gly(cPr) = N[C@H](C(=O)O)C1CC1
Just so you know, I need the unit written after the number.

These recorded examples may help you get a feel for the data.
- CC(C)C[C@@H]1NC(=O)[C@@H](N(C)C(=O)[C@@H](NC(=O)[C@@H]2C[C@@H](F)CN2C(=O)C2(C(F)(F)F)CC(F)(F)C2)C2CC2)CCCCCCCN(C)C(=O)[C@H](Cc2cc(F)ccc2-c2cnn(C)c2)N(C)C1=O [Example 65] ({cBuCO(3,3-F2-1-CF3)}-[Pro(trans-4-F)][Gly(cPr)][NMehhhLys(Me)]L[X112]; lactam 3-C): 20 nM
- CC(C)C[C@@H]1NC(=O)[C@@H](N(C)C(=O)[C@@H](NC(=O)[C@@H]2C[C@@H](F)CN2C(=O)C2(C(F)(F)F)CCC2)C2CC2)CCCCCCCNC(=O)[C@H](Cc2cc(F)cnc2OC2CC2)N(C)C1=O [Example 134] ({Cyclobutanecarbonyl(1-CF3)}-[Pro(trans-4-F)][Gly(cPr)][NMe(hhhLys)]L[NMe3Pal(2-OcPr,5-F)]; lactam 3-C): 20 nM

input: Item under review: CC(C)C[C@@H]1NC(=O)[C@@H](N(C)C(=O)[C@@H](NC(=O)[C@@H]2C[C@@H](F)CN2C(=O)C2(C(F)(F)F)CC(F)(F)C2)C2CC2)CC=CCCCCN(C)C(=O)[C@H](Cc2cc(Cl)cnc2OC2CC2)N(C)C1=O [Example 104] . Reported IC50?
output: 20 nM

###

# Tgt: CyclinA2/CDK2 (Homo sapiens, UniProt P20248)
# Construct: purchased CRELUX Protein Services
# Protocol Summary: Fluorescence Polarization (FP) competitive binding assay, Cyclin A2/Cdk2
# Particulars: 8 nM Cyclin A2/Cdk2, 2 nM FAM probe; average of 2-3 independent experiments; read-out: Cyclin A FP IC50
*1 amine or outer side, *2 acyl side, *3 side chain or, on linkers, in order; H or OH if unused. Where a SMILES comes first, the peptide text is derived from it. Bridges are numbered along the chain shown (N, C = ends). [ ]: non-standard residue; d: D form. The star is where a group is joined. X48 = CN(C)C[C@H]1CN(c2ccc(-c3ccc(Cl)cc3C[C@@H](C(=O)[*:2])N(C)[*:1])cc2)CCO1; NMehhhLys(Me) = CN([C@@H](CCCCCCCN(C)[*:3])C(=O)[*:2])[*:1]; X132 = CN([C@@H](Cc1cc(Cl)cc2ccoc12)C(=O)[*:2])[*:1]; cBuCO(3,3-F2-1-CF3) = O=C(C1(C(F)(F)F)CC(F)(F)C1)*; Pro(trans-4-F) = O=C(O)[C@@H]1C[C@@H](F)CN1; Gly(cPr) = N[C@H](C(=O)O)C1CC1
Please provide measured pIC50 for the entries that follow.
Give bare numbers, as −log10 of the molar value.

* CC(C)C[C@@H]1NC(=O)[C@@H](N(C)C(=O)[C@@H](NC(=O)[C@@H]2C[C@@H](F)CN2C(=O)C2(C(F)(F)F)CC(F)(F)C2)C2CC2)CCCCCCCN(C)C(=O)[C@H](Cc2cc(Cl)cc3ccoc23)N(C)C1=O [Example 394] ({cBuCO(3,3-F2-1-CF3)}-[Pro(trans-4-F)][Gly(cPr)][NMehhhLys(Me)]L[X132]; lactam 3-C) | 6.82

Here is the next item to consider.
input: Quick check: pIC50 on CyclinA2/CDK2 (Homo sapiens, UniProt P20248), item CC(C)C[C@@H]1NC(=O)[C@@H](N(C)C(=O)[C@@H](NC(=O)[C@@H]2C[C@@H](F)CN2C(=O)C2(C(F)(F)F)CC(F)(F)C2)C2CC2)CCCCCCCN(C)C(=O)[C@H](Cc2cc(Cl)ccc2-c2ccc(N3CCO[C@@H](CN(C)C)C3)cc2)N(C)C1=O [Example 410] ({cBuCO(3,3-F2-1-CF3)}-[Pro(trans-4-F)][Gly(cPr)][NMehhhLys(Me)]L[X48]; lactam 3-C) ?
output: 7.70

###

Please provide measured pIC50 for the entries that follow.
# Tgt: CyclinA2/CDK2 (Homo sapiens)
# Construct: purchased CRELUX Protein Services
# Protocol Summary: Fluorescence Polarization (FP) competitive binding assay, Cyclin A2/Cdk2;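 also: plates equilibrated two hours at room temperature before polarization reading, IC50 fitted from eight-concentration compound titration curves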
# Particulars: 8 nM Cyclin A2/Cdk2, 2 nM FAM probe; average of 2-3 independent experiments; read-out: Cyclin A FP IC50
*1 amine or outer side, *2 acyl side, *3 side chain or, on linkers, in order; H or OH if unused. Where a SMILES comes first, the peptide text is derived from it. Bridges are numbered along the chain shown (N, C = ends). [ ]: non-standard residue; d: D form. The star is where a group is joined. X54 = CN([C@@H](Cc1cc(F)ccc1-c1cnn(C2CCC2)c1)C(=O)[*:2])[*:1]; NMehhhLys(Me) = CN([C@@H](CCCCCCCN(C)[*:3])C(=O)[*:2])[*:1]; NMe(hhhLys) = CN([C@@H](CCCCCCCN[*:3])C(=O)[*:2])[*:1]; NMe3Pal(2-OMe,5-Cl) = CN[C@@H](Cc1cc(Cl)cnc1OC)C(=O)O; Oxane2carbonyl(2R-CF3) = O=C([C@@]1(C(F)(F)F)CCCCO1)*; cBuCO(3,3-F2-1-CF3) = O=C(C1(C(F)(F)F)CC(F)(F)C1)*; Pro(trans-4-F) = O=C(O)[C@@H]1C[C@@H](F)CN1; Gly(cPr) = N[C@H](C(=O)O)C1CC1
Answers are plain numbers, as −log10 of the molar value.

I need pIC50 for every entry listed below, if you could help.
1. CCN1CCCCCCC[C@H](N(C)C(=O)[C@@H](NC(=O)[C@@H]2C[C@@H](F)CN2C(=O)C2(C(F)(F)F)CC(F)(F)C2)C2CC2)C(=O)N[C@@H](CC(C)C)C(=O)N(C)[C@@H](Cc2cc(Cl)ccc2-c2ccc(N3CCOCC3)cc2)C1=O
2. Cc1nnc(-c2ccc(Cl)cc2C[C@H]2C(=O)N(C)CCCCC=CC[C@H](N(C)C(=O)[C@@H](NC(=O)[C@@H]3C[C@@H](F)CN3C(=O)C3(C(F)(F)F)CC(F)(F)C3)C3CC3)C(=O)N[C@@H](CC(C)C)C(=O)N2C)o1
3. COc1ncc(Cl)cc1C[C@H]1C(=O)NCCCCCCC[C@H](N(C)C(=O)[C@@H](NC(=O)[C@@H]2C[C@@H](F)CN2C(=O)[C@@]2(C(F)(F)F)CCCCO2)C2CC2)C(=O)N[C@@H](CC(C)C)C(=O)N1C [Example 274] ({Oxane2carbonyl(2R-CF3)}-[Pro(trans-4-F)][Gly(cPr)][NMe(hhhLys)]L[NMe3Pal(2-OMe,5-Cl)]; lactam 3-C)
4. CC(C)C[C@@H]1NC(=O)[C@@H](N(C)C(=O)[C@@H](NC(=O)[C@@H]2C[C@@H](F)CN2C(=O)C2(C(F)(F)F)CC(F)(F)C2)C2CC2)CCCCCCCN(C)C(=O)[C@H](Cc2cc(F)ccc2-c2cnn(C3CCC3)c2)N(C)C1=O [Example 96] ({cBuCO(3,3-F2-1-CF3)}-[Pro(trans-4-F)][Gly(cPr)][NMehhhLys(Me)]L[X54]; lactam 3-C)

output:
[7.70, 7.40, 7.52, 7.70]

###

# Tgt: CyclinE1/CDK2 (Homo sapiens, UniProt P24864)
# Construct: purchased Eurofins, discovery 14-475
# Protocol Summary: Fluorescence Polarization (FP) competitive binding assay, Cyclin E1/Cdk2;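 also: readings taken after two-hour equilibration at room temperature in HEPES buffer with NaCl, DTT, NP-40 and BSA, IC50 fitted from eight-concentration serial dilution series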
# Particulars: 10 nM Cyclin E1/Cdk2, 2 nM FAM probe; average of 2-3 independent experiments; read-out: Cyclin E FP IC50
*1 amine or outer side, *2 acyl side, *3 side chain or, on linkers, in order; H or OH if unused. Where a SMILES comes first, the peptide text is derived from it. Bridges are numbered along the chain shown (N, C = ends). [ ]: non-standard residue; d: D form. The star is where a group is joined. X127 = CN([C@@H](Cc1cc(F)ccc1-c1cnn(S(=O)(=O)C2CC2)c1)C(=O)[*:2])[*:1]; X36 = Cc1cc(-c2ccc(Cl)cc2C[C@@H](C(=O)[*:2])N(C)[*:1])ccc1N1CCN(C)CC1; NMehhhLys(Me) = CN([C@@H](CCCCCCCN(C)[*:3])C(=O)[*:2])[*:1]; Oxane2carbonyl(2R-CF3) = O=C([C@@]1(C(F)(F)F)CCCCO1)*; cBuCO(3,3-F2-1-CF3) = O=C(C1(C(F)(F)F)CC(F)(F)C1)*; Pro(trans-4-F) = O=C(O)[C@@H]1C[C@@H](F)CN1; Gly(cPr) = N[C@H](C(=O)O)C1CC1
Please provide measured IC50 for the entries that follow.
One number for each entry, in nM.

• Cc1cc(-c2ccc(Cl)cc2C[C@H]2C(=O)N(C)CCCCCCC[C@H](N(C)C(=O)[C@@H](NC(=O)[C@@H]3C[C@@H](F)CN3C(=O)C3(C(F)(F)F)CC(F)(F)C3)C3CC3)C(=O)N[C@@H](CC(C)C)C(=O)N2C)ccc1N1CCN(C)CC1 [Example 374] ({cBuCO(3,3-F2-1-CF3)}-[Pro(trans-4-F)][Gly(cPr)][NMehhhLys(Me)]L[X36]; lactam 3-C) = 870

input: Item under review: CC(C)C[C@@H]1NC(=O)[C@@H](N(C)C(=O)[C@@H](NC(=O)[C@@H]2C[C@@H](F)CN2C(=O)[C@@]2(C(F)(F)F)CCCCO2)C2CC2)CCCCCCCN(C)C(=O)[C@H](Cc2cc(F)ccc2-c2cnn(S(=O)(=O)C3CC3)c2)N(C)C1=O [Example 282] ({Oxane2carbonyl(2R-CF3)}-[Pro(trans-4-F)][Gly(cPr)][NMehhhLys(Me)]L[X127]; lactam 3-C) . Reported IC50?
output: 100
